Tested on: collagen I
Experiment: Collagen I expression in human HaCaT cells (western blot)
Assay type: cell-based
Settings: 1 μM, relative to 0 μM = 1.00
measuredParameter: Collagen I in cell
Form: value (number only, do not type unit).

// known answers, use as guide
{"columns": ["molecule", "Collagen I in cell"],
 "data": [
  ["CC(=O)O[C@H]1[C@H](O[C@H]2CC[C@]34C[C@]35CC[C@]3(C)[C@@H]([C@@]6(C)CC[C@@H](C(C)(C)O)O6)[C@@H](O)C[C@@]3(C)[C@@H]5C[C@H](O[C@@H]3O[C@H](CO)[C@@H](O)[C@H](O)[C@H]3O)[C@H]4C2(C)C)OC[C@@H](OC(C)=O)[C@@H]1O [isoAS1, isoastragaloside I]", 1.19],
  ["CC(C)(O)C1CC[C@](C)(C2[C@@H](O)C[C@@]3(C)C4C[C@H](OC5OC(CO)C(O)C(O)C5O)C5C(C)(C)[C@@H](O)CCC56CC46CC[C@]23C)O1 (stereo partly shown)", 3.47],
  ["CC(=O)O[C@H]1[C@H](O[C@H]2CC[C@]34C[C@]35CC[C@]3(C)[C@@H]([C@@]6(C)CC[C@@H](C(C)(C)O)O6)[C@@H](O)C[C@@]3(C)[C@@H]5C[C@H](O[C@@H]3O[C@H](CO)[C@@H](O)[C@H](O)[C@H]3O)[C@H]4C2(C)C)OC[C@@H](O)[C@@H]1O [AS2, astragaloside II]", 1.87]
]}

Please find the next molecule below.
Query: Please report the recorded Collagen I in cell for CC(=O)O[C@@H]1[C@@H](O)[C@H](O[C@H]2CC[C@]34C[C@]35CC[C@]3(C)[C@@H]([C@@]6(C)CC[C@@H](C(C)(C)O)O6)[C@@H](O)C[C@@]3(C)[C@@H]5C[C@H](O[C@@H]3O[C@H](CO)[C@@H](O)[C@H](O)[C@H]3O)[C@H]4C2(C)C)OC[C@H]1O [isoAS2, isoastragaloside II] .
Result: 1.41

Where these numbers come from: patent US20080057010A1
